# Tested on: Escherichia coli TOP10
# ASSAY SUMMARY: shrunken log2 fold change of peptide-encoding DNA abundance (4.5 h post-induction vs induction); higher = less antimicrobial activity (less host growth inhibition)
# TEST SETTINGS: time post-induction: 4.5 h; library: site-saturation at positions 5, 18, 19, 20
Provide the reported shrunken log2 fold change of each item.
Enter a number only.

Request the reported shrunken log2 fold change associated with `RRIRFRPPRLPRPRPRPVIGPRP`
-0.234

Request the reported shrunken log2 fold change associated with `RRIRRRPPRLPRPRPRPCQYPRP`
-0.137

Request the reported shrunken log2 fold change associated with `RRIRRRPPRLPRPRPRPATMPRP`
0.876

Request the reported shrunken log2 fold change associated with `RRIRPRPPRLPRPRPRPGRFPRP`
0.434

Request the reported shrunken log2 fold change associated with `RRIRIRPPRLPRPRPRPSYQPRP`
-1.32

Request the reported shrunken log2 fold change associated with `RRIRVRPPRLPRPRPRPGFKPRP`
-0.0945

Request the reported shrunken log2 fold change associated with `RRIRERPPRLPRPRPRPMGEPRP`
-0.00192

Request the reported shrunken log2 fold change associated with `RRIRKRPPRLPRPRPRPLICPRP`
0.123

Request the reported shrunken log2 fold change associated with `RRIRLRPPRLPRPRPRPKEHPRP`
0.227

Request the reported shrunken log2 fold change associated with `RRIRIRPPRLPRPRPRPLWPPRP`
-0.0906

Request the reported shrunken log2 fold change associated with `RRIRNRPPRLPRPRPRPKTNPRP`
0.0551

Request the reported shrunken log2 fold change associated with `RRIRNRPPRLPRPRPRPQEQPRP`
0.042

Request the reported shrunken log2 fold change associated with `RRIRYRPPRLPRPRPRPKVYPRP`
-1.13

Request the reported shrunken log2 fold change associated with `RRIRVRPPRLPRPRPRPGCRPRP`
0.5

Request the reported shrunken log2 fold change associated with `RRIRPRPPRLPRPRPRPQFHPRP`
-0.3

Request the reported shrunken log2 fold change associated with `RRIRWRPPRLPRPRPRPYFKPRP`
-0.839

Request the reported shrunken log2 fold change associated with `RRIRDRPPRLPRPRPRPDDAPRP`
0.365

Request the reported shrunken log2 fold change associated with `RRIRYRPPRLPRPRPRPFQEPRP`
-0.152

Request the reported shrunken log2 fold change associated with `RRIRARPPRLPRPRPRPERSPRP`
0.264

Request the reported shrunken log2 fold change associated with `RRIRTRPPRLPRPRPRPSRHPRP`
-0.481

Request the reported shrunken log2 fold change associated with `RRIRLRPPRLPRPRPRPNCNPRP`
-0.535

Request the reported shrunken log2 fold change associated with `RRIRSRPPRLPRPRPRPGCHPRP`
0.328

Request the reported shrunken log2 fold change associated with `RRIRVRPPRLPRPRPRPTECPRP`
0.00778

Request the reported shrunken log2 fold change associated with `RRIRGRPPRLPRPRPRPPMCPRP`
0.525

Request the reported shrunken log2 fold change associated with `RRIRHRPPRLPRPRPRPNEAPRP`
0.0232

Request the reported shrunken log2 fold change associated with `RRIRARPPRLPRPRPRPTWTPRP`
0.425

Request the reported shrunken log2 fold change associated with `RRIRPRPPRLPRPRPRPPIWPRP`
0.268

Request the reported shrunken log2 fold change associated with `RRIRARPPRLPRPRPRPVVNPRP`
0.346

Request the reported shrunken log2 fold change associated with `RRIRMRPPRLPRPRPRPPRLPRP`
1.06

Request the reported shrunken log2 fold change associated with `RRIRMRPPRLPRPRPRPHKEPRP`
0.0586

Request the reported shrunken log2 fold change associated with `RRIRGRPPRLPRPRPRPKLPPRP`
0.821

Request the reported shrunken log2 fold change associated with `RRIRWRPPRLPRPRPRPPCAPRP`
0.563

====

# System: Escherichia coli TOP10
# ASSAY SUMMARY: shrunken log2 fold change of peptide-encoding DNA abundance (4.5 h post-induction vs induction); higher = less antimicrobial activity (less host growth inhibition)
# TEST SETTINGS: time post-induction: 4.5 h; library: site-saturation at positions 5, 18, 19, 20
Provide the reported shrunken log2 fold change of each item.
Enter a number only.

Request the reported shrunken log2 fold change associated with `RRIRQRPPRLPRPRPRPAWVPRP`
0.0382

Request the reported shrunken log2 fold change associated with `RRIRDRPPRLPRPRPRPFLCPRP`
0.0956

Request the reported shrunken log2 fold change associated with `RRIRMRPPRLPRPRPRPHHKPRP`
-0.316

Request the reported shrunken log2 fold change associated with `RRIRCRPPRLPRPRPRPTKWPRP`
-0.121

Request the reported shrunken log2 fold change associated with `RRIRGRPPRLPRPRPRPHPYPRP`
0.0786

Request the reported shrunken log2 fold change associated with `RRIRFRPPRLPRPRPRPFWQPRP`
-0.321

Request the reported shrunken log2 fold change associated with `RRIRIRPPRLPRPRPRPKIHPRP`
-0.464

Request the reported shrunken log2 fold change associated with `RRIRYRPPRLPRPRPRPDLTPRP`
-0.0272

Request the reported shrunken log2 fold change associated with `RRIRTRPPRLPRPRPRPKLEPRP`
-0.0598

Request the reported shrunken log2 fold change associated with `RRIRPRPPRLPRPRPRPHCDPRP`
0.22

Request the reported shrunken log2 fold change associated with `RRIRGRPPRLPRPRPRPGFKPRP`
0.354

Request the reported shrunken log2 fold change associated with `RRIRPRPPRLPRPRPRPVYIPRP`
-0.684

Request the reported shrunken log2 fold change associated with `RRIRRRPPRLPRPRPRPVGVPRP`
0.705

Request the reported shrunken log2 fold change associated with `RRIRFRPPRLPRPRPRPYSNPRP`
-0.603

Request the reported shrunken log2 fold change associated with `RRIRMRPPRLPRPRPRPARFPRP`
0.251

Request the reported shrunken log2 fold change associated with `RRIRERPPRLPRPRPRPRIYPRP`
-0.194

Request the reported shrunken log2 fold change associated with `RRIRERPPRLPRPRPRPVGDPRP`
-0.0343

Request the reported shrunken log2 fold change associated with `RRIRWRPPRLPRPRPRPYPKPRP`
0.11

Request the reported shrunken log2 fold change associated with `RRIRGRPPRLPRPRPRPMWPPRP`
1.07

Request the reported shrunken log2 fold change associated with `RRIRMRPPRLPRPRPRPLDDPRP`
3.25

Request the reported shrunken log2 fold change associated with `RRIRDRPPRLPRPRPRPRCFPRP`
1.66

Request the reported shrunken log2 fold change associated with `RRIRNRPPRLPRPRPRPYATPRP`
-0.145

Request the reported shrunken log2 fold change associated with `RRIRRRPPRLPRPRPRPVCMPRP`
0.32

Request the reported shrunken log2 fold change associated with `RRIRCRPPRLPRPRPRPNVQPRP`
-0.0319

Request the reported shrunken log2 fold change associated with `RRIRFRPPRLPRPRPRPYNAPRP`
-0.714

Request the reported shrunken log2 fold change associated with `RRIRMRPPRLPRPRPRPKDMPRP`
0.0907

Request the reported shrunken log2 fold change associated with `RRIRWRPPRLPRPRPRPSWEPRP`
-0.0924

Request the reported shrunken log2 fold change associated with `RRIRWRPPRLPRPRPRPHAWPRP`
0.0328

Request the reported shrunken log2 fold change associated with `RRIRGRPPRLPRPRPRPNDMPRP`
-0.0212

Request the reported shrunken log2 fold change associated with `RRIRIRPPRLPRPRPRPEITPRP`
-0.461

Request the reported shrunken log2 fold change associated with `RRIRHRPPRLPRPRPRPKKQPRP`
-0.0264

Request the reported shrunken log2 fold change associated with `RRIRLRPPRLPRPRPRPPLDPRP`
0.436

====

# Test system: Escherichia coli TOP10;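 further: peptides expressed intracellularly from a pBAD plasmid library in pooled LB shake-flask culture, induced with 0.3% L-arabinose, DNA abundance read by NGS, three biological replicates, DESeq2 with apeglm shrinkage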
# ASSAY SUMMARY: shrunken log2 fold change of peptide-encoding DNA abundance (4.5 h post-induction vs induction); higher = less antimicrobial activity (less host growth inhibition)
# TEST SETTINGS: time post-induction: 4.5 h; library: site-saturation at positions 5, 18, 19, 20
Provide the reported shrunken log2 fold change of each item.
Enter a number only.

Request the reported shrunken log2 fold change associated with `RRIRPRPPRLPRPRPRPDRFPRP`
-0.137

Request the reported shrunken log2 fold change associated with `RRIRKRPPRLPRPRPRPQGHPRP`
0.0492

Request the reported shrunken log2 fold change associated with `RRIRMRPPRLPRPRPRPEYKPRP`
0.359

Request the reported shrunken log2 fold change associated with `RRIRERPPRLPRPRPRPFMRPRP`
0.154

Request the reported shrunken log2 fold change associated with `RRIRCRPPRLPRPRPRPCWYPRP`
0.0339

Request the reported shrunken log2 fold change associated with `RRIRTRPPRLPRPRPRPLFLPRP`
-0.184

Request the reported shrunken log2 fold change associated with `RRIRPRPPRLPRPRPRPDGLPRP`
-0.117

Request the reported shrunken log2 fold change associated with `RRIRGRPPRLPRPRPRPVPMPRP`
1.17

Request the reported shrunken log2 fold change associated with `RRIRCRPPRLPRPRPRPSAKPRP`
0.189

Request the reported shrunken log2 fold change associated with `RRIRARPPRLPRPRPRPDAYPRP`
0.522

Request the reported shrunken log2 fold change associated with `RRIRTRPPRLPRPRPRPLKAPRP`
0.0363

Request the reported shrunken log2 fold change associated with `RRIRKRPPRLPRPRPRPKKLPRP`
0.16

Request the reported shrunken log2 fold change associated with `RRIRQRPPRLPRPRPRPLDFPRP`
-0.0491

Request the reported shrunken log2 fold change associated with `RRIRYRPPRLPRPRPRPYYHPRP`
-0.283

Request the reported shrunken log2 fold change associated with `RRIRIRPPRLPRPRPRPTIVPRP`
0.119
